The reported measurements were obtained from paper PMC11995222.

# measurementProtocol: Cellular toxicity assay (MTT)
# Format: cell-based, human
# conditionContext: human; HuH-7 cells, MTT, 24h, highest concentration (100 µM); read-out: Percentage of HuH-7 cells viability at the highest compound concentration tested, 24h
property: viability at 24 h, 100 µM (%)

>  <smilesRecord>
NS(=O)(=O)c1ccc(/N=C2\S/C(=C3\C(=O)Nc4c(F)cccc43)C(=O)N2C2CC2)cc1

>  <quantitativeResult>
70

$$$$

----------
# measurementProtocol: Cellular toxicity assay (MTT)
# Format: cell-based, human
# conditionContext: human; HuH-7 cells, MTT, 72h
Here, each record is paired with measured CC50 at 72 h data.

>  <molecule>
NS(=O)(=O)c1ccc(/N=C2\S/C(=C3\C(=O)Nc4c(F)cccc43)C(=O)N2C2CC2)cc1 [compound 3h]

>  <resultQualifier>
>

>  <CC50 at 72 h (nM)>
100000

$$$$
>  <molecule>
CC[C@@]1(O)C(=O)OCc2c1cc1n(c2=O)Cc2cc3ccccc3nc2-1 [Camptothecin, reference compound]

>  <resultQualifier>
=

>  <CC50 at 72 h (nM)>
500

$$$$
